Data origin: patent US20090123479A1

Target: T1, recombinant human IL-23 (human, UniProt Q9NPF7 20-189; P29460 23-328)
T1 construct: also called hIL-23
T1 sequence 1: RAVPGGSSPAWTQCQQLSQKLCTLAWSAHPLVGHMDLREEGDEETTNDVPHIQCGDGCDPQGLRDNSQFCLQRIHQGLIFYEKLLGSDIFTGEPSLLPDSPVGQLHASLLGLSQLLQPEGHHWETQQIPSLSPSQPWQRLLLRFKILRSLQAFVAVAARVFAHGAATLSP
T1 sequence 2: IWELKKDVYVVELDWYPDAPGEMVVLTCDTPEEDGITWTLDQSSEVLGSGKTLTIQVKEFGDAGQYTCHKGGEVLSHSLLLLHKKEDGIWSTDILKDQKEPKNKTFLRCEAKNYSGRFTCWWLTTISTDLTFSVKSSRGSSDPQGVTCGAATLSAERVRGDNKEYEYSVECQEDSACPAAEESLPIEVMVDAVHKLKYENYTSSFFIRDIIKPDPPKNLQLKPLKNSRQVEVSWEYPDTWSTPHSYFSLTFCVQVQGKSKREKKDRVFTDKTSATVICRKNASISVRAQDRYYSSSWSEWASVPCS
Assay: SPR (Biacore T100), CHO supernatant antibody captured on Protein A or anti-human IgG, IL-23 analyte at 256, 64, 16, 4, 1 nM
Test Readout: pKd
Numbers only, as −log10 of the molar value.

Binder | pKd
A3N1 (antibody, human IgG1, kappa, V domains shown, Full length chains) VH: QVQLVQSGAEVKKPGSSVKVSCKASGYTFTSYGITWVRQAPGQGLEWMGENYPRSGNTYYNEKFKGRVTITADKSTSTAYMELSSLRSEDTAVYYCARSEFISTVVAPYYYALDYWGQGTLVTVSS VL: DIVMTQTPLSLSVTPGQPASISCKASKKVTIFGSISALHWYLQKPGQPPQLIYNGAKLESGVSDRFSDSGSQNRSPFGNQLSFTLKISRVEAEDVGVYYCLQNKEVPYTFGGGTKVEIKR | 8.39
A3M1 (antibody, human IgG1, kappa, V domains shown, Full length chains) VH: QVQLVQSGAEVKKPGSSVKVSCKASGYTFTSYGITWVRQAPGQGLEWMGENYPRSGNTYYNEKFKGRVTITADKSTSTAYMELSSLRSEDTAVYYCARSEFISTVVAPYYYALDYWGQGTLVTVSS VL: DIVMTQSPDSLAVSLGERATINCKASKKVTIFGSISALHWYQQKPGQPPKLIYNGAKLESGVSDRFSDSGSQNRSPFGNQLSFTLTISSLQAEDVAVYYCLQNKEVPYTFGGGTKVEIKR | 8.62
A3M0 (antibody, human IgG1, kappa, V domains shown, Full length chains; also called humanized mAb A3M0) VH: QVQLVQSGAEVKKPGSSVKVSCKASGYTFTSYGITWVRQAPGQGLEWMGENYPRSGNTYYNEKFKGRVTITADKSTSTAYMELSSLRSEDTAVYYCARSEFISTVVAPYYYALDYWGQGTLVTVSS VL: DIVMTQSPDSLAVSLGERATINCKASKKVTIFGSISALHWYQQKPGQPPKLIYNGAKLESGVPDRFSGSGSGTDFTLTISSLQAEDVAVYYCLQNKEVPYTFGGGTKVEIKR | 9.04

Q: Find the recorded pKd belonging to A3N2 (antibody, human IgG1, kappa, V domains shown, Full length chains) VH: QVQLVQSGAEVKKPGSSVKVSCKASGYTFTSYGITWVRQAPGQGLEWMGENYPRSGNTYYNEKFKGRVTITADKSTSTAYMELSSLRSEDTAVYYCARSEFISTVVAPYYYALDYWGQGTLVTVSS VL: DIVMTQTPLSLSVTPGQPASISCKASKKVTIFGSISALHWYLQKPGQPPQLIYNGAKLESGVSDRFSDSGSGTDFTLKISRVEAEDVGVYYCLQNKEVPYTFGGGTKVEIKR and report it.
Result: 8.80
